Please go through the items and note down their pKd.
- TESTED_TARGET: T1, Drosophila Numb PTB domain (aa 65-203) (Drosophila, UniProt P16554-1 65-203)
- T1 construct: Numb, Drosophila, PTB domain, residues 65-203; theoretical mass 15.7 kDa in the ultracentrifugation; also called dNumb PTB; Numb 65-203; source: E. coli BL21 (DE3), purified (Ni2+-NTA, SEC); not shown: His tag, N-terminal, cleaved
- T1 sequence (looked up): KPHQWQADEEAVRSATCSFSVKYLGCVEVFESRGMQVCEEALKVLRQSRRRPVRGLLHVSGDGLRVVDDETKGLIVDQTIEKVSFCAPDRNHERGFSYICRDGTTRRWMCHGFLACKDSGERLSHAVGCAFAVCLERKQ
- MEASUREMENT_NOTES: ITC; Pon fragments (~0.5 mM) injected into PTB proteins (~0.05 mM); 20 °C; 50 mM Tris pH 8.0, 100 mM NaCl, 1 mM EDTA, 1 mM β-ME; one-site binding model
- EXPERIMENTAL_PARAMETERS: both partners purified
pKd: −log10 of the molar value.

Pon 1-116 (A1) (domain or fragment) MLETKSIAALAFTETPRKRKRETLYKNAAPPPNPQQQPPEKDAQDAAVASTESCFTNAAFSSTPKKLMVARRRLAKENSQPNPFPGLEVKSIADLAQKQQHQQHHQQQQQQQQKLP | ~4.15
Pon 1-130/41-130 (A1B1) (domain or fragment) MLETKSIAALAFTETPRKRKRETLYKNAAPPPNPQQQPPEKDAQDAAVASTESCFTNAAFSSTPKKLMVARRRLAKENSQPNPFPGLEVKSIADLAQKQQHQQHHQQQQQQQQKLPTNPFEVLRQPPKKK | 4.74
QQQQKLPTNPFAVLRQPPKKKKREHACFENPGLNLELPE (domain or fragment) [Pon B1A2 E121A] | < 4.00
KKREHACFENPGLNLELPEKQFNPEEVVRSATT (domain or fragment) [Pon A2B2 Y154E] | < 4.00

Now consider a different binder.
Task: # get_value(readout='pKd', item= KKREHACFENPGLNLELPE (domain or fragment) [Pon 124-148/130-148 (A2)] )
Output: < 4.00
